- Test system: HEK-293T
- Assay comment: Multiplex assay against HEK293T
- Type: toxicity, cell-based
- Measurement setup: human, 48 h, 1 µM, compound concentration 1 uM, replicate 2
Readout: Population Healthy Nuclei (%)
The figure you give is taken to be in %; do not add the unit.

Solved entries:
- Compound: "Cc1ccc(S(=O)(=O)NC2c3ccccc3Oc3ccccc32)cc1"
  Readout: "Population Healthy Nuclei (%)"
  Readout units: "%"
  Measured number: 78
- Compound: "CCCc1cc(C)[nH]c(=O)c1CNC(=O)c1cc(-c2ccc(N3CCN(C(C)C)CC3)nc2)cc2c1cnn2C(C)C"
  Readout: "Population Healthy Nuclei (%)"
  Readout units: "%"
  Measured number: 68
- Compound: "Cc1c(P(=S)(c2ccccc2)c2ccccc2)n2ccccc2[n+]1C/C=C/c1ccccc1.[Br-]"
  Readout: "Population Healthy Nuclei (%)"
  Readout units: "%"
  Measured number: 57
- Compound: "N#CCNC(=O)c1ccc(-c2ccnc(Nc3ccc(N4CCOCC4)cc3)n2)cc1 [MOMELOTINIB]"
  Readout: "Population Healthy Nuclei (%)"
  Readout units: "%"
  Measured number: 76
- Compound: "Cl.NC[C@@H]1O[C@H](C23CC4CC(CC(C4)C2)C3)Cc2c1ccc(O)c2O"
  Readout: "Population Healthy Nuclei (%)"
  Readout units: "%"
  Measured number: 83
- Compound: "Oc1cccc(-c2nc(N3CCOCC3)c3oc4ncccc4c3n2)c1 [PI-103]"
  Readout: "Population Healthy Nuclei (%)"
  Readout units: "%"
  Measured number: 55

Qu. Given CC(Cc1ccc(O)c(O)c1)C(C)Cc1ccc(O)c(O)c1 (centres undefined) [NORDIHYDROGUAIARETIC ACID] , state its recorded Population Healthy Nuclei (%).
Ans. 69

Qu. For the compound shown here, CCCCCNC(=N)N/N=C/c1c[nH]c2ccc(OC)cc12.O=C(O)/C=C\C(=O)O [TEGASEROD MALEATE] , give the reported Population Healthy Nuclei (%).
Ans. 78

Qu. Could you tell me which Population Healthy Nuclei (%) is on file for C=CC(=O)Nc1cc(-n2c(=O)ccc3cnc4ccc(-c5ccc(NS(C)(=O)=O)cc5)cc4c32)ccc1C ?
Ans. 81

---

- Test system: U2OS
- Assay comment: Multiplex assay against U2OS
- Type: toxicity, cell-based
- Measurement setup: human, 12 h, 1 µM, compound concentration 1 uM, replicate 1
Readout: Total Cell Count
Answer as a number with no unit attached.

- Compound: "Cc1c(Nc2ccc(S(=O)(=O)N3CCN(C)CC3)cc2F)nc2ccc(Nc3cnn(C4CC4)c3)cn2c1=O"
  Measured number: 194
- Compound: "Cl.NC[C@@H]1O[C@H](C23CC4CC(CC(C4)C2)C3)Cc2c1ccc(O)c2O"
  Measured number: 116

Qu. Entry CCOc1ccn(-c2ccc(F)cc2)c(=O)c1C(=O)Nc1ccc(Oc2ccnc(N)c2Cl)c(F)c1 has what Total Cell Count?
Ans. 190

Qu. Can you share its Total Cell Count? I mean this compound: Cc1ccc(NC(=O)Nc2cc(C(F)(F)F)ccc2F)cc1Nc1ccc2c(c1)NC(=O)/C2=C\c1ccc[nH]1
Ans. 153

Qu. State the recorded Total Cell Count for this entry: CN1C(=O)[C@@H](NC(=O)c2cc3ccccc3[nH]2)N=C(c2ccccc2)c2ccccc21 [DEVAZEPIDE]
Ans. 144

Qu. I'd like to know its Total Cell Count. The compound in question is CCCCCNC(=N)N/N=C/c1c[nH]c2ccc(OC)cc12.O=C(O)/C=C\C(=O)O [TEGASEROD MALEATE]
Ans. 73

Qu. I would be grateful if you could share the reported Total Cell Count for CC[C@H](Nc1ncnc2[nH]cnc12)c1nc2cccc(F)c2c(=O)n1-c1ccccc1 .
Ans. 162

Qu. For the compound Cc1ccc(S(=O)(=O)NC2c3ccccc3Oc3ccccc32)cc1 , what Total Cell Count is on record?
Ans. 216

Qu. # query: Total Cell Count of entry Cc1c(Nc2ccc(S(=O)(=O)N3CCN(C)CC3)cc2F)nc2ccc(-c3cnn(C4CC4)c3)cn2c1=O
Ans. 160

Qu. Recorded Total Cell Count of CC(C)C[C@H](NC(=O)[C@H](Cc1ccccc1)NC(=O)CNC(=O)CNC(=O)[C@@H](N)Cc1ccc(O)cc1)C(=O)O , please.
Ans. 216

Qu. Record request: Total Cell Count value, item Cc1c(P(=S)(c2ccccc2)c2ccccc2)n2ccccc2[n+]1C/C=C/c1ccccc1.[Br-]
Ans. 133

Qu. Report Total Cell Count for CCCc1cc(C)[nH]c(=O)c1CNC(=O)c1cc(-c2ccc(N3CCN(C(C)C)CC3)nc2)cc2c1cnn2C(C)C please.
Ans. 124

Qu. What Total Cell Count value was documented for this compound, CCCCN(CC)c1nc(C)nc2c1c(C)cn2-c1c(C)cc(C)cc1C.Cl ?
Ans. 135

---

- Test system: U2OS
- Assay comment: Multiplex assay against U2OS
- Format: toxicity, cell-based
- Measurement setup: human, 12 h, 1 µM, compound concentration 1 uM, replicate 2
Recorded measurements of Population Hoechst High Intensity Objects (%), one per entry
Field format: number, assumed %, no unit text.

- Compound: "C[C@@H](Oc1cc(-n2cnc3ccc(CN4CCN(C)CC4)cc32)sc1C(N)=O)c1ccccc1C(F)(F)F"
  Measured number: 4

Qu. Look up Population Hoechst High Intensity Objects (%) for this compound: CCCCCNC(=N)N/N=C/c1c[nH]c2ccc(OC)cc12.O=C(O)/C=C\C(=O)O [TEGASEROD MALEATE]
Ans. 3

Qu. Given NC(=O)c1ccc2nc(-c3ccc(C4(N)CCC4)cc3)c(-c3ccccc3)n2n1 , state its recorded Population Hoechst High Intensity Objects (%).
Ans. 12

Qu. Need Population Hoechst High Intensity Objects (%) of CC(/C=C1\SC(=S)N(CCCC(=O)Nc2ccc(C(=O)O)c(O)c2)C1=O)=C\c1ccccc1 , thanks.
Ans. 6

---

- Tested on: U2OS
- Assay comment: Multiplex assay against U2OS
- Assay type: toxicity, cell-based
- Measurement setup: human, 48 h, 10 µM, compound concentration 10 uM, replicate 1
Some compounds, each annotated with its measured Population Mitotic Cells (%).
Express your answer in %, writing the number without its unit.

- Compound: "CCCCN(CC)c1nc(C)nc2c1c(C)cn2-c1c(C)cc(C)cc1C.Cl"
  Readout: "Population Mitotic Cells (%)"
  Readout units: "%"
  Measured number: 60
- Compound: "N#Cc1cccc(C(=O)Nc2cc(-c3ccccc3)nn2-c2ccccc2)c1"
  Readout: "Population Mitotic Cells (%)"
  Readout units: "%"
  Measured number: 40
- Compound: "CC(Cc1ccc(O)c(O)c1)C(C)Cc1ccc(O)c(O)c1 (stereo unspecified) [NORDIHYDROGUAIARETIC ACID]"
  Readout: "Population Mitotic Cells (%)"
  Readout units: "%"
  Measured number: 27
- Compound: "C=CC(=O)Nc1cc(-n2c(=O)ccc3cnc4ccc(-c5ccc(NS(C)(=O)=O)cc5)cc4c32)ccc1C"
  Readout: "Population Mitotic Cells (%)"
  Readout units: "%"
  Measured number: 22
- Compound: "Cl.NC[C@@H]1O[C@H](C23CC4CC(CC(C4)C2)C3)Cc2c1ccc(O)c2O"
  Readout: "Population Mitotic Cells (%)"
  Readout units: "%"
  Measured number: 16

Qu. Which Population Mitotic Cells (%) reading was recorded for the compound CC(C)c1cc(Nc2nc(N3CCC[C@H](N)C3)ncc2C(N)=O)cc(C(C)C)n1 ?
Ans. 10

Qu. Consider the compound shown here: Oc1cccc(-c2nc(N3CCOCC3)c3oc4ncccc4c3n2)c1 [PI-103] What is its recorded Population Mitotic Cells (%)?
Ans. 29

---

Reported Population Pyknosed Nuclei (%) values are given for each entry in this list.
- Test system: Fibroblast
- Assay comment: Multiplex assay against human fibroblast
- Format: toxicity, cell-based
- Measurement setup: 48 h, 10 µM, compound concentration 10 uM, replicate 2

- Molecule: "CN1C(=O)[C@@H](NC(=O)c2cc3ccccc3[nH]2)N=C(c2ccccc2)c2ccccc21 [DEVAZEPIDE]"
  Result: "1%"

Qu. State its Population Pyknosed Nuclei (%) on Fibroblast: N#CCNC(=O)c1ccc(-c2ccnc(Nc3ccc(N4CCOCC4)cc3)n2)cc1
Ans. 6%

Qu. Observed Population Pyknosed Nuclei (%) on Fibroblast for CCCCCNC(=N)N/N=C/c1c[nH]c2ccc(OC)cc12.O=C(O)/C=C\C(=O)O [TEGASEROD MALEATE] , please.
Ans. 31%

---

- Test system: U2OS
- Assay comment: Multiplex assay against U2OS
- Assay type: toxicity, cell-based
- Measurement setup: human, 12 h, 1 µM, compound concentration 1 uM, replicate 1
Readout: Population Mitochondria Different-Phenotype (%)
Write it as a number; the unit % goes unstated.

Recorded results for 3 molecules are shown here.
- Molecule: "CC[C@H](Nc1ncnc2[nH]cnc12)c1nc2cccc(F)c2c(=O)n1-c1ccccc1"
  Measured number: 10
- Molecule: "Cc1c(Nc2ccc(S(=O)(=O)N3CCN(C)CC3)cc2F)nc2ccc(Nc3cnn(C4CC4)c3)cn2c1=O"
  Measured number: 9
- Molecule: "CC(C)c1cc(Nc2nc(N3CCC[C@H](N)C3)ncc2C(N)=O)cc(C(C)C)n1"
  Measured number: 89

Shifting focus to the molecule that follows.
Qu. State its Population Mitochondria Different-Phenotype (%) on U2OS: CN1C(=O)[C@@H](NC(=O)c2cc3ccccc3[nH]2)N=C(c2ccccc2)c2ccccc21 [DEVAZEPIDE]
Ans. 17

Each recorded value in this set is attributed to ChEMBL document CHEMBL4689842.
